- Tested on: SH-SY5Y cells
- assay_info: sAPPβ release assay
- settings: Homo sapiens, SH-SY5Y, read-out: IC50 Cell (sAPPβ release, nM), SH-SY5Y cells, compounds incubated 16-17 h
So I've got a bunch of compounds here, and I need their IC50 values.
Value expressed in nM; do not type the unit.

Ask | Given COc1cc(C#N)cc(-c2ccc3c(c2)C2(COC(N)=N2)C(C2CCOCC2)C3)c1 (centres unmarked) , respond with its IC50.
Reply | 331

Ask | Given CO[C@H]1[C@H](C)C[C@@]2(Cc3ccc(-c4cncc(C#N)c4)cc3[C@@]23COC(N)=N3)C[C@@H]1C , respond with its IC50.
Reply | 2.4

Ask | Given [2H]C1([2H])OC(N)=N[C@]12c1cc(-c3cncc(C)c3)ccc1C[C@@]21CC[C@H](OC)[C@@H](C)C1 , respond with its IC50.
Reply | 1.6

Ask | Given COc1cc(C#N)cc(-c2ccc3c(c2)C2(COC(N)=N2)C(N2CCOCC2)C3)c1 (centres unmarked) , respond with its IC50.
Reply | 2160

Ask | Given COCCC1(C)Cc2ccc(-c3cc(C#N)cc(OC)c3)cc2C12COC(N)=N2 (centres unmarked) , respond with its IC50.
Reply | 561

Ask | Given [2H]C([2H])([2H])O[C@@H]1CC[C@]2(Cc3ccc(-c4cnccc4F)cc3[C@]23N=C(N)OC3([2H])[2H])C[C@H]1C , respond with its IC50.
Reply | 1.8

Ask | Given [2H]C1([2H])OC(N)=N[C@]12c1cc(-c3cccnc3)ccc1C[C@@]21CC[C@H](OC)[C@@H](C)C1 , respond with its IC50.
Reply | 0.76

Ask | Given [2H]C1([2H])OC(N)=N[C@]12c1cc(-c3cncc(Cl)c3)ccc1C[C@]21CC[C@@H](OC)[C@H](C)C1 , respond with its IC50.
Reply | 0.45

* * *

- Test system: SH-SY5Y cells
- assay_info: sAPPβ release assay
- settings: Homo sapiens, SH-SY5Y, read-out: IC50 Cell (sAPPβ release, nM)
observation_type: IC50 (nM)
Value expressed in nM; do not type the unit.

Ask | Given [2H]C([2H])([2H])O[C@@H]1CC[C@]2(Cc3ccc(-c4cncnc4)cc3[C@]23N=C(N)OC3([2H])[2H])C[C@H]1C [Compound 73] , respond with its IC50.
Reply | 6.1

Ask | Given [2H]C1([2H])OC(N)=N[C@]12c1cc(-c3cccnc3)ccc1C[C@]21CC[C@@H](OC)CC1 [Compound 117] , respond with its IC50.
Reply | 7

Ask | Given [2H]C1([2H])OC(N)=N[C@]12c1cc(-c3cncnc3)ccc1C[C@@]21CC[C@H](OC)[C@@H](CC)C1 [Compound 68] , respond with its IC50.
Reply | 1.9

Ask | Given [2H]C([2H])([2H])O[C@H]1CC[C@@]2(Cc3ccc(-c4cncnc4)cc3[C@]23N=C(N)OC3([2H])[2H])C[C@@H]1C [Compound 71] , respond with its IC50.
Reply | 1.3

Ask | Given CO[C@H]1CC[C@]2(CC1)Cc1ccc(-c3cncnc3)cc1C21COC(N)=N1 (stereo partly shown) [Compound 50] , respond with its IC50.
Reply | 16

Ask | Given [2H]C1([2H])OC(N)=NC12c1cc(-c3cc(C#N)cc(OC)c3)ccc1C[C@]21CC[C@@H](OC)CC1 (stereo partly shown) [Compound 36] , respond with its IC50.
Reply | 4

Ask | Given CO[C@H]1CC[C@]2(CC1)Cc1ccc(-c3cncc(C)c3)cc1C21COC(N)=N1 (stereo partly shown) [Compound 41] , respond with its IC50.
Reply | 5.1

Ask | Given NC1=NC2(CO1)c1cc(-c3cncnc3)ccc1CC2N1CCOCC1 (stereo not shown) [Compound 98] , respond with its IC50.
Reply | 1840

Ask | Given CO[C@H]1CC[C@]2(CC1)Cc1ccc(-c3cncnc3)cc1[C@@]21COC(N)=N1 [Compound 47] , respond with its IC50.
Reply | 9.1

Ask | Given CO[C@H]1CC[C@]2(CC1)Cc1ccc(-c3cncc(C)c3)cc1[C@@]21COC(N)=N1 [Compound 77] , respond with its IC50.
Reply | 7.5

* * *

- target_under_test: Human BACE2 (Homo sapiens, UniProt Q9Y5Z0)
- Construct: the soluble part of the human β-Secretase2 (AA1-AA473) was cloned using BACE2(1-473)-(AVT)-Fc-pDEST12.2 mammalian expression vector; AVT linker (C); made in house
- Sequence (Q9Y5Z0 21-473): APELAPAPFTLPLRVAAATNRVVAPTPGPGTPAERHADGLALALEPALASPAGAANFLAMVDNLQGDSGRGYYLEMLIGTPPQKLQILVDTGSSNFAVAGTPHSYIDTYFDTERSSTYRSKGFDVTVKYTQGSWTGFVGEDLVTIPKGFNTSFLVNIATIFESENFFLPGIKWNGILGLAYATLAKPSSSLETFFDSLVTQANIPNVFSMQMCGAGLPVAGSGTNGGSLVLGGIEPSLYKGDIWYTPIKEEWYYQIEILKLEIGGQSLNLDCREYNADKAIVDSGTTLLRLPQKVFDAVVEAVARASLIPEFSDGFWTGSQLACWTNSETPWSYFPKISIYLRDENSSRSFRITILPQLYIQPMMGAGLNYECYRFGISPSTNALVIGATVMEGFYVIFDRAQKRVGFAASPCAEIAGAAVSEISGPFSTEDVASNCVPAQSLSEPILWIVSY
- assay_info: TR-FRET assay
- Type: biochemical
- settings: enzyme 2.7 μg/mL, substrate 100 nM, pH4.5
- Protocol: The β-secretase enzyme used in the TR-FRET was prepared as follows: Human BACE1: the cDNA for the soluble part of the human β-Secretase1 (AA1-AA460) was cloned using the BACE1(1-460)-(AVT)-Fc-pGEN-IRES-neo mammalian expression vector. The gene was fused to the Fe domain of IgG1 (affinity tag) and stably cloned into HEK 293 cells. […] A multidrop Combi was used for the liquid handling. […] Fluorescence was measured on a Pherastar plate reader using HTRF module. […]
pIC50: −log10 of the molar value.
So I've got a bunch of compounds here, and I need their pIC50 values.

Ask | Fetch value of pIC50 on Human BACE2 (Homo sapiens, UniProt Q9Y5Z0) for [2H]C1([2H])OC(N)=N[C@]12c1cc(-c3cncnc3C)ccc1C[C@@]21CC[C@H](OC)[C@@H](C)C1 [Compound 70] .
Reply | < 5.30

Ask | Fetch value of pIC50 on Human BACE2 (Homo sapiens, UniProt Q9Y5Z0) for COCCCC1Cc2ccc(-c3cc(C#N)cc(OC)c3)cc2C12COC(N)=N2 (stereo not drawn) [Compound 90] .
Reply | < 5.30

Ask | Fetch value of pIC50 on Human BACE2 (Homo sapiens, UniProt Q9Y5Z0) for [2H]C1([2H])OC(N)=N[C@]12c1cc(-c3cncnc3C)ccc1C[C@]21CC[C@@H](OC)CC1 [Compound 116] .
Reply | < 5.30

* * *

So I've got a bunch of compounds here, and I need their pIC50 values.
- target_under_test: Human BACE2 (Homo sapiens)
- Construct: the soluble part of the human β-Secretase2 (AA1-AA473) was cloned using BACE2(1-473)-(AVT)-Fc-pDEST12.2 mammalian expression vector; AVT linker (C); made in house
- assay_info: TR-FRET assay
- Type: biochemical
- settings: enzyme 2.7 μg/mL, substrate 100 nM, pH4.5
Just the number, please; pIC50 means minus log10 of the concentration in mol/L.

Ask | Given COc1cc(C#N)cc(-c2ccc3c(c2)C2(COC(N)=N2)C(C2CCOCC2)C3)c1 (centres unmarked) , respond with its pIC50.
Reply | 6.15

Ask | Given [2H]C1([2H])OC(N)=NC12c1cc(-c3cc(C#N)cc(OC)c3)ccc1C[C@@]21C[C@@H](C)[C@H](OC)[C@@H](C)C1 (some centres unmarked) , respond with its pIC50.
Reply | 7.58

Ask | Given COCCC1Cc2ccc(-c3cc(C#N)cc(OC)c3)cc2C12COC(N)=N2 (centres unmarked) , respond with its pIC50.
Reply | 6.36

Ask | Given [2H]C1([2H])OC(N)=N[C@]12c1cc(-c3cc(C#N)cc(OC)c3)ccc1C[C@@]21CC[C@H](OC)[C@@H](C)C1 , respond with its pIC50.
Reply | 7.67

Ask | Given [2H]C1([2H])OC(N)=NC12c1cc(-c3cc(F)cc(F)c3)ccc1C[C@@]21CC[C@H](OC)[C@@H](C)C1 (some centres unmarked) , respond with its pIC50.
Reply | 7.02

Ask | Given [2H]C1([2H])OC(N)=N[C@]12c1cc(-c3cncc(F)c3)ccc1C[C@]21CC[C@@H](OC)[C@H](C)C1 , respond with its pIC50.
Reply | 6.87

Ask | Given [2H]C1([2H])OC(N)=NC12c1cc(-c3cncc(Cl)c3)ccc1C[C@]21CC[C@@H](OC)CC1 (some centres unmarked) , respond with its pIC50.
Reply | 6.98

Ask | Given [2H]C1([2H])OC(N)=N[C@]12c1cc(-c3cccnc3F)ccc1C[C@]21CC[C@@H](OC)[C@H](C)C1 , respond with its pIC50.
Reply | 6.13

Ask | Given [2H]C1([2H])OC(N)=NC12c1cc(/C=N/OC3CCC3)ccc1C[C@]21CC[C@@H](OC)CC1 (some centres unmarked) , respond with its pIC50.
Reply | 5.46

Ask | Given COc1cc(C#N)cc(-c2ccc3c(c2)C2(COC(N)=N2)C(C)(C2CCOCC2)C3)c1 (centres unmarked) , respond with its pIC50.
Reply | 6.56

Ask | Given [2H]C1([2H])OC(N)=NC12c1cc(-c3cc(Cl)cc(C#N)c3)ccc1C[C@@]21C[C@@H](C)[C@H](OC)[C@@H](C)C1 (some centres unmarked) , respond with its pIC50.
Reply | 7.29

Ask | Given [2H]C1([2H])OC(N)=NC12c1cc(CCC(C)C)ccc1C[C@@]21C[C@@H](C)[C@H](OC)[C@@H](C)C1 (some centres unmarked) , respond with its pIC50.
Reply | 6.71

Ask | Given CC#Cc1cncc(-c2ccc3c(c2)C2(COC(N)=N2)[C@]2(CC[C@H](OC)CC2)C3)c1 (some centres unmarked) , respond with its pIC50.
Reply | 7.64

Ask | Given [2H]C1([2H])CC2(N=C(N)O1)c1cc(-c3cncc(C#N)c3)ccc1C[C@]21CC[C@@H](OC)CC1 (some centres unmarked) , respond with its pIC50.
Reply | 6.99

Ask | Given [2H]C1([2H])OC(N)=N[C@]12c1cc(-c3cncc(Cl)c3)ccc1C[C@@]21CC[C@H](OC)[C@@H](C)C1 , respond with its pIC50.
Reply | 7.42
